- test.method.notes: Tissue distribution after single or repeated oral administration (7 or 14 days) in mice
- Assay type: in vivo, ICR mice
- protocol.conditions: ICR, mouse, large intestine, po, 1 mg/kg, repeated dose for 7 days, large intestine, read-out: AUC Ratio (AUC48 h, tissue / AUC48 h, plasma)
recorded.endpoint: Kp
Could you keep your reply to the number by itself?

What does the record list as Kp for OC[C@H]1O[C@@H](c2cc(Cc3ccc(C4CC4)cc3)c(Cl)c3c2CCO3)[C@H](O)[C@@H](O)[C@@H]1O ?
2.33

---

- test.method.notes: Pharmacokinetics after oral administration in rats
- Assay type: in vivo, Sprague Dawley (SD) rats
- protocol.conditions: Sprague-Dawley, rat, plasma, po, 0.3 mg/kg, PO 0.3 mg/kg, AUC∞,PO / AUC∞,IV, read-out: BA (absolute bioavailability)
recorded.endpoint: bioavailability (%)
Respond numerically; units are % and should not be typed.

What does the record list as bioavailability for OC[C@H]1O[C@@H](c2cc(Cc3ccc(C4CC4)cc3)c(Cl)c3c2CCO3)[C@H](O)[C@@H](O)[C@@H]1O ?
62.1
